System: EW-11;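 further: growth inhibition of human EW-11 cells, measured with a cell viability assay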
MEASUREMENT NOTES: cells
Type: functional, cell-based, Homo sapiens
CONDITION NOTES: Homo sapiens, EW-11
Description: SANGER: Inhibition of human EW-11 cell growth in a cell viability assay.
pIC50: −log10 of the molar value.
Each entry below carries its reported pIC50.

# COMPOUND, PARAMETER, TEST VALUE
data = [
    ("CN(C)C/C=C/C(=O)Nc1cc2c(Nc3ccc(F)c(Cl)c3)ncnc2cc1O[C@H]1CCOC1 [AFATINIB]", "pIC50", "< 6.30"),
    ("CC1=C2C[C@H]3[C@@H](CC=C4C[C@@H](O)CC[C@@]43C)[C@@H]2CC[C@]12O[C@@H]1C[C@H](C)CN[C@H]1[C@H]2C [CYCLOPAMINE]", "pIC50", "< 4.80"),
]

Return pIC50 (reported value) for this compound: Cc1cnc(-c2cnc(NCCNc3ccc(C#N)cn3)nc2-c2ccc(Cl)cc2Cl)[nH]1 [LADUVIGLUSIB]
< 5.59

Return pIC50 (reported value) for this compound: CNC(=O)c1cc(Oc2ccc(NC(=O)Nc3ccc(Cl)c(C(F)(F)F)c3)cc2)ccn1 [SORAFENIB]
< 5.40

====

Test system: TE-5;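 further: inhibition of cell growth, read out by a cell viability assay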
MEASUREMENT NOTES: cells
Type: functional, cell-based, Homo sapiens
CONDITION NOTES: Homo sapiens, TE-5
Description: SANGER: Inhibition of human TE-5 cell growth in a cell viability assay.
pIC50: −log10 of the molar value.
PARAMETER: pIC50

Worked examples, 3 compounds total:
# COMPOUND, SYSTEM NAME, pIC50
measured = [
    ("COC(=O)CNC(=O)C(=O)OC", "TE-5", 2.96),
    ("O=c1cc(-c2cccc3c2Sc2ccccc2S3)oc(N2CCOCC2)c1 [KU-55933]", "TE-5", "< 5.00"),
    ("Cn1cc(C2=C(c3ccc(Cl)cc3Cl)C(=O)NC2=O)c2ccccc21 [SB-216763]", "TE-5", "< 5.00"),
]

Return pIC50 (reported value) for this compound: CS(=O)(=O)CCNCc1ccc(-c2ccc3ncnc(Nc4ccc(OCc5cccc(F)c5)c(Cl)c4)c3c2)o1 [LAPATINIB]
< 5.70

Return pIC50 (reported value) for this compound: O=C(c1cc(Cc2n[nH]c(=O)c3ccccc23)ccc1F)N1CCN(C(=O)C2CC2)CC1 [OLAPARIB]
< 5.30

====

Tested on: UMUC3;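 further: growth inhibition of human UM-UC-3 cells, read out with a cell viability assay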
MEASUREMENT NOTES: cells
Type: functional, cell-based, Homo sapiens
CONDITION NOTES: Homo sapiens, UMUC3
Description: SANGER: Inhibition of human UM-UC-3 cell growth in a cell viability assay.
Each entry below carries its reported IC50.
All answers are understood in µM, so give the number only.

# MOLECULE, SYSTEM NAME, TEST VALUE
measured = [
    ("COc1cc([C@@H]2c3cc4c(cc3[C@@H](O[C@@H]3O[C@@H]5CO[C@@H](C)O[C@H]5[C@H](O)[C@H]3O)[C@H]3COC(=O)[C@H]23)OCO4)cc(OC)c1O [ETOPOSIDE]", "UMUC3", 1.15),
]

Then there is this molecule:
Return IC50 (reported value) for this molecule: `COc1ccc(-c2ccc3c(N4CCOC[C@@H]4C)nc(N4CCOC[C@@H]4C)nc3n2)cc1CO`
1.48

====

Tested on: 647-V
MEASUREMENT NOTES: cells
Format: functional, cell-based, Homo sapiens
CONDITION NOTES: Homo sapiens, 647-V
Description: SANGER: Inhibition of human 647-V cell growth in a cell viability assay.
PARAMETER: IC50

# COMPOUND, IC50
rows = [
    ("COc1ccc(-c2ccc3c(N4CCOC[C@@H]4C)nc(N4CCOC[C@@H]4C)nc3n2)cc1CO [AZD-8055]", "1540 nM"),
    ("Cc1cnc(-c2cnc(NCCNc3ccc(C#N)cn3)nc2-c2ccc(Cl)cc2Cl)[nH]1 [LADUVIGLUSIB]", "> 2560 nM"),
    ("COc1cc(F)c(F)c(Nc2ccc(I)cc2F)c1NS(=O)(=O)C1(CC(O)CO)CC1 (stereo unspecified)", "> 5000 nM"),
    ("CC(=O)O[C@@H]1[C@@H](OC(C)=O)[C@@H](O)[C@H](Oc2c(-c3ccc(O)cc3)oc3cc(O)cc(O)c3c2=O)O[C@H]1C", "> 10000 nM"),
    ("Cn1cncc1[C@@](N)(c1ccc(Cl)cc1)c1ccc2c(c1)c(-c1cccc(Cl)c1)cc(=O)n2C [TIPIFARNIB]", "2300 nM"),
]

Return IC50 (reported value) for this compound: CN(Cc1cnc2nc(N)nc(N)c2n1)c1ccc(C(=O)N[C@@H](CCC(=O)O)C(=O)O)cc1 [METHOTREXATE]
> 200 nM

====

Test system: TE-8
MEASUREMENT NOTES: cells
Format: functional, cell-based, Homo sapiens
CONDITION NOTES: Homo sapiens, TE-8
Description: SANGER: Inhibition of human TE-8 cell growth in a cell viability assay.
PARAMETER: IC50

# COMPOUND, IC50
data = [
    ("CN(C)C/C=C/C(=O)Nc1cc2c(Nc3ccc(F)c(Cl)c3)ncnc2cc1O[C@H]1CCOC1 [AFATINIB]", "> 0.5 µM"),
    ("C=CCc1cccc(/C=N/NC(=O)CN2CCN(Cc3ccccc3)CC2)c1O [PAC-1]", "> 2.56 µM"),
    ("O=c1cc(-c2cccc3c2Sc2ccccc2S3)oc(N2CCOCC2)c1 [KU-55933]", "> 10 µM"),
]

Then there is this compound:
Name the recorded IC50 of CS(=O)(=O)CCNCc1ccc(-c2ccc3ncnc(Nc4ccc(OCc5cccc(F)c5)c(Cl)c4)c3c2)o1 [LAPATINIB] , assay system TE-8.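 Further: growth inhibition of TE-8 cells, measured with a cell viability readout.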
> 2 µM

====

Test system: IA-LM;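 further: cell viability assay measuring growth inhibition of human IA-LM cells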
MEASUREMENT NOTES: cells
Format: functional, cell-based, Homo sapiens
CONDITION NOTES: Homo sapiens, IA-LM
Description: SANGER: Inhibition of human IA-LM cell growth in a cell viability assay.
pIC50: −log10 of the molar value.
PARAMETER: pIC50

# COMPOUND, SYSTEM NAME, PARAMETER, TEST VALUE
data = [
    ("CN(c1ncccc1CNc1nc(Nc2ccc3c(c2)CC(=O)N3)ncc1C(F)(F)F)S(C)(=O)=O [PF-00562271]", "IA-LM", "pIC50", "< 5.59"),
    ("CC(=O)O[C@@]12CO[C@@H]1C[C@H](O)[C@@]1(C)C(=O)[C@H](O)C3=C(C)[C@@H](OC(=O)[C@H](O)[C@@H](NC(=O)OC(C)(C)C)c4ccccc4)C[C@@](O)([C@@H](OC(=O)c4ccccc4)[C@H]21)C3(C)C [DOCETAXEL]", "IA-LM", "pIC50", "< 8.00"),
]

Return pIC50 (reported value) for this compound: C[C@]1(O)C[C@@H](c2nc(-c3ccc4ccc(-c5ccccc5)nc4c3)c3c(N)nccn32)C1 [LINSITINIB]
< 5.59

Return pIC50 (reported value) for this compound: COc1ccc(C2=N[C@@H](c3ccc(Cl)cc3)[C@@H](c3ccc(Cl)cc3)N2C(=O)N2CCNC(=O)C2)c(OC(C)C)c1 [NUTLIN-3]
< 5.10

Return pIC50 (reported value) for this compound: C=CCc1cccc(/C=N/NC(=O)CN2CCN(Cc3ccccc3)CC2)c1O [PAC-1]
< 5.59

====

Each entry below carries its reported pIC50.
Test system: YKG-1;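 further: cell growth inhibition, read out with a viability assay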
MEASUREMENT NOTES: cells
Format: functional, cell-based, Homo sapiens
CONDITION NOTES: Homo sapiens, YKG-1
Description: SANGER: Inhibition of human YKG-1 cell growth in a cell viability assay.
pIC50: −log10 of the molar value.

# RECORD SMILES, pIC50
data = [
    ("CC(=O)O[C@@H]1[C@@H](OC(C)=O)[C@@H](O)[C@H](Oc2c(-c3ccc(O)cc3)oc3cc(O)cc(O)c3c2=O)O[C@H]1C", "< 5.00"),
    ("CCOc1nc(NC(=O)Cc2cc(OC)ccc2OC)cc(N)c1C#N", "< 5.00"),
    ("Cn1cc(C2=C(c3ccc(Cl)cc3Cl)C(=O)NC2=O)c2ccccc21", "< 5.00"),
]

Then there is this compound:
Return pIC50 (reported value) for this compound: `CN(c1ncccc1CNc1nc(Nc2ccc3c(c2)CC(=O)N3)ncc1C(F)(F)F)S(C)(=O)=O`
< 5.59

====

Tested on: NCI-H2009
MEASUREMENT NOTES: cells
Type: functional, cell-based, Homo sapiens
CONDITION NOTES: Homo sapiens, NCI-H2009
Description: SANGER: Inhibition of human NCI-H2009 cell growth in a cell viability assay.
pIC50: −log10 of the molar value.
PARAMETER: pIC50

Name the recorded pIC50 of `Nc1ccn([C@@H]2O[C@H](CO)[C@@H](O)[C@@H]2O)c(=O)n1` , assay system NCI-H2009.
< 5.70

Name the recorded pIC50 of `Cc1cnc(-c2cnc(NCCNc3ccc(C#N)cn3)nc2-c2ccc(Cl)cc2Cl)[nH]1` , assay system NCI-H2009.
< 5.59

Name the recorded pIC50 of `CN(c1ncccc1CNc1nc(Nc2ccc3c(c2)CC(=O)N3)ncc1C(F)(F)F)S(C)(=O)=O` , assay system NCI-H2009.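 Further: cell viability assay measuring inhibition of NCI-H2009 cell growth.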
< 5.59

====

Each entry below carries its reported IC50.
Tested on: ETK-1
MEASUREMENT NOTES: cells
Format: functional, cell-based, Homo sapiens
CONDITION NOTES: Homo sapiens, ETK-1
Description: SANGER: Inhibition of human ETK-1 cell growth in a cell viability assay.
All answers are understood in nM, so give the number only.

# RECORD SMILES, IC50, nM
measured = [
    ("CCC1=C[C@@H]2CN(C1)Cc1c([nH]c3ccccc13)[C@@](C(=O)OC)(c1cc3c(cc1OC)N(C)[C@H]1[C@@](O)(C(=O)OC)[C@H](OC(C)=O)[C@]4(CC)C=CCN5CC[C@]31[C@@H]54)C2", 6.92),
]

Then there is this compound:
Name the recorded IC50 of `CC(=O)O[C@@]12CO[C@@H]1C[C@H](O)[C@@]1(C)C(=O)[C@H](O)C3=C(C)[C@@H](OC(=O)[C@H](O)[C@@H](NC(=O)OC(C)(C)C)c4ccccc4)C[C@@](O)([C@@H](OC(=O)c4ccccc4)[C@H]21)C3(C)C` , assay system ETK-1.
0.558
